Target: T1, cynomolgus monkey NKp46 (full length, on cells) (cynomolgus monkey, UniProt Q95JB9 22-306)
T1 construct: also called cynomolgus monkey NKp46-CHOK1; cynomolgus NKp46-CHOK1
T1 sequence (Q95JB9 22-306): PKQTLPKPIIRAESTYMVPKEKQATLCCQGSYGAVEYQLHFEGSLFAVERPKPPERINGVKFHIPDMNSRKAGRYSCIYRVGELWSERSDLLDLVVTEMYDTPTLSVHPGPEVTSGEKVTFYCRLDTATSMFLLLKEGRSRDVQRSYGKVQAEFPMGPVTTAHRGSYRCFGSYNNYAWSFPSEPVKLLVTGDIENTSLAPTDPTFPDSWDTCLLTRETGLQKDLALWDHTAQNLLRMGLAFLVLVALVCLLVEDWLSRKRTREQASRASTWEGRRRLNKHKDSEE
Experiment: flow cytometry on cynomolgus monkey NKp46-CHOK1 cells
METRIC NAME: pEC50
Lab note — pEC50 values are minus log10 of concentrations in M.

// below: answered binders
* H3-PA27 humanized antibody (antibody, human IgG1, V domains shown, not shown: constant region of human IgG1) VH: QVQLVESGGGVVQPGRSLRLSCAASGRTESWYRMGWFRQAPGKGREVVARISGDTNIKYYAGSVKGRFTISRDNSKNTLYLQMSSLRAEDTAVYYCAADRTGATWDYWGQGTLVTVSS | 10.14
* H1-PA27 humanized antibody (antibody, human IgG1, V domains shown, also called hPA27; not shown: constant region of human IgG1) VH: QVQLVESGGGVVQPGRSLRLSCAASGRTESWYRMGWVRQAPGKGLEWVARISGDTNIKYYAGSVKGRFTISRDNSKNTLYLQMSSLRAEDTAVYYCAADRTGATWDYWGQGTLVTVSS | 9.47
* H1-PA45 humanized antibody (antibody, human IgG1, V domains shown, also called hPA45; not shown: constant region of human IgG1) VH: EVQLVESGGGLVQPGGSLRLSCAASGRTFSRLPMAWVRQAPGKGLEWVSAISWSGGSTYYADSMKGRFTISRDNSKNTLYLQMNSLRAEDTAVYYCAAVGDSAPYSATIVYTDARAYAYWGQGTLVTVSS | 7.95
* H4-PA31 humanized antibody (antibody, human IgG1, V domains shown, not shown: constant region of human IgG1) VH: EVQLVESGGGLVQPGGSLRLSCAVSGRTFSRLPMGWFRQAPGKDREFVAAISWSSSTTYYADSVKGRFTISRDNSKNTAYLQMNSLRAEDTAVYYCAAVGGSLDYSATVVYTAARAYADWGQGTLVTVSS | 8.89
* H2-PC11 humanized antibody (antibody, human IgG1, V domains shown, not shown: constant region of human IgG1) VH: EVQLVESGGGLVQPGGSLRLSCAPSPYSANSFSMAWFRQAPGKGLEGIACIQAESGSTNVAPSVKGRFTISQDNSKNTLYLQMNSLRAEDTAVYYCAAFKRNVGGCELRPEHWRFWGQGTLVTVSS | 9.52

stdin: I am curious: what pEC50 value has been reported for H1-PC11 humanized antibody (antibody, human IgG1, V domains shown, not shown: constant region of human IgG1) VH: EVQLVESGGGLVQPGGSLRLSCAASPYSANSFSMAWFRQAPGKGLEGVACIQAESGSTNVAPSVKGRFTISQDNSKNTLYLQMNSLRAEDTAVYYCAAFKRNVGGCELRPEHWRFWGQGTLVTVSS ?
stdout: 9.46

stdin: I am curious: what pEC50 value has been reported for H2-PA27 humanized antibody (antibody, human IgG1, V domains shown, not shown: constant region of human IgG1) VH: QVQLVESGGGVVQPGRSLRLSCAASGRTESWYRMGWFRQAPGKGLEVVARISGDTNIKYYAGSVKGRFTISRDNSKNTLYLQMSSLRAEDTAVYYCAADRTGATWDYWGQGTLVTVSS ?
stdout: 10.16

stdin: I am curious: what pEC50 value has been reported for H3-PA31 humanized antibody (antibody, human IgG1, V domains shown, not shown: constant region of human IgG1) VH: EVQLVESGGGLVQPGGSLRLSCAVSGRTFSRLPMGWFRQAPGKGREFVAAISWSSSTTYYADSVKGRFTISRDNSKNTAYLQMNSLRAEDTAVYYCAAVGGSLDYSATVVYTAARAYADWGQGTLVTVSS ?
stdout: 8.94
